Recorded abundance fitness, one value per entry.
B1: Retinoic acid receptor RXR-alpha, residues 132 to 208; numbered along this chain, P19793 (parent)
chain: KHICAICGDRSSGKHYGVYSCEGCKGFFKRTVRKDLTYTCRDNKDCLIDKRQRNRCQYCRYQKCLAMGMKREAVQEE

Variants of: B1
protocolText: abundance fitness (aPCA) (normalised: wild type 0, dead -1); higher = more abundant; growth selection in yeast, the domain comes from the species named
details: Homo sapiens
reportedMetric: abundance fitness

variantdesignation=Y16H readoutvalue=-0.031
variantdesignation=G17H readoutvalue=-0.053
variantdesignation=H2M readoutvalue=0.078
variantdesignation=R33L readoutvalue=-0.096
variantdesignation=K14T readoutvalue=-0.039
variantdesignation=V18S readoutvalue=-0.328
variantdesignation=L47P readoutvalue=-0.045
variantdesignation=K1M readoutvalue=-0.067
variantdesignation=G23D readoutvalue=0.049
variantdesignation=K50R readoutvalue=-0.026
variantdesignation=R33W readoutvalue=-0.002
